tested on: 941728-121-R-J1-PDC complex spheroid viability; test: Anticancer human tumor 941728-121-R-J1-PDC patient-derived lung adenocarcinoma cell line growth inhibition [RAS]; details: second compound 0.000949 µM; first compound 0.316 µM; hits give low values;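 note: spheroids exposed to compounds for 7 days before readout; 100% = DMSO vehicle control viability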
Please respond with reported viability, T/C for every item in the list.

Cc1nc(N2CCC3(CC2)COC(C)C3N)c(CO)nc1Sc1ccnc(N)c1Cl (stereo unspecified) + CCn1c(-c2cc(N3CCN(C)CC3)cnc2C(C)OC)c2c3cc(ccc31)-c1csc(n1)CC(NC(=O)C1CC1C)C(=O)N1CCCC(N1)C(=O)OCC(C)(C)C2; 14.6%
Nc1ccn(C2OC(CO)C(O)C2(F)F)c(=O)n1 (stereo unspecified) + CCn1c(-c2cccnc2C(C)OC)c2c3cc(ccc31)N1CCOC(CC(NC(=O)C(C(C)C)N(C)C(=O)C3(F)CCN(C(=O)C#CC(C)(C)N(C)C)CC3)C(=O)N3CCCC(N3)C(=O)OCC(C)(C)C2)C1; 19.5%
CC(C)NCC(C(=O)N1CCN(c2ncnc3c2C(C)CC3O)CC1)c1ccc(Cl)cc1 (stereo unspecified) + CCn1c(-c2cc(N3CCN(C)CC3)cnc2C(C)OC)c2c3cc(ccc31)-c1csc(n1)CC(NC(=O)C1CC1C)C(=O)N1CCCC(N1)C(=O)OCC(C)(C)C2; 18.8%

For every listed record, write down its viability, T/C.
1. O=C(c1ccc(F)c(F)c1Nc1ccc(I)cc1F)N1CC(O)([C@@H]2CCCCN2)C1 + CCn1c(-c2cc(N3CCN(C)CC3)cnc2C(C)OC)c2c3cc(ccc31)-c1csc(n1)CC(NC(=O)C1CC1C)C(=O)N1CCCC(N1)C(=O)OCC(C)(C)C2
2. CC1(O)CCCC1n1c(=O)c(C(F)F)cc2cnc(NC3CCN(S(C)(=O)=O)CC3)nc21 (stereo unspecified) + CCn1c(-c2cccnc2C(C)OC)c2c3cc(ccc31)N1CCOC(CC(NC(=O)C(C(C)C)N(C)C(=O)C3(F)CCN(C(=O)C#CC(C)(C)N(C)C)CC3)C(=O)N3CCCC(N3)C(=O)OCC(C)(C)C2)C1
3. C[C@@H](NC(=O)c1ncnc(N)c1Cl)c1ncc(C(=O)Nc2cc(C(F)(F)F)c(Cl)cn2)s1 + CCn1c(-c2cccnc2C(C)OC)c2c3cc(ccc31)N1CCOC(CC(NC(=O)C(C(C)C)N(C)C(=O)C3(F)CCN(C(=O)C#CC(C)(C)N(C)C)CC3)C(=O)N3CCCC(N3)C(=O)OCC(C)(C)C2)C1
4. CC(=O)OC12COC1CC(O)C1(C)C(=O)C(O)C3=C(C)C(OC(=O)C(O)C(NC(=O)OC(C)(C)C)c4ccccc4)CC(O)(C(OC(=O)c4ccccc4)C21)C3(C)C (stereo unspecified) + CCn1c(-c2cc(N3CCN(C)CC3)cnc2C(C)OC)c2c3cc(ccc31)-c1csc(n1)CC(NC(=O)C1CC1C)C(=O)N1CCCC(N1)C(=O)OCC(C)(C)C2
5. Cc1nc(N2CCC3(CC2)COC(C)C3N)c(CO)nc1Sc1ccnc(N)c1Cl (stereo unspecified) + CCn1c(-c2cccnc2C(C)OC)c2c3cc(ccc31)N1CCOC(CC(NC(=O)C(C(C)C)N(C)C(=O)C3(F)CCN(C(=O)C#CC(C)(C)N(C)C)CC3)C(=O)N3CCCC(N3)C(=O)OCC(C)(C)C2)C1
6. C=CC(=O)Nc1cc(Nc2nccc(-c3cn(C)c4ccccc34)n2)c(OC)cc1N(C)CCN(C)C + CCn1c(-c2cccnc2C(C)OC)c2c3cc(ccc31)N1CCOC(CC(NC(=O)C(C(C)C)N(C)C(=O)C3(F)CCN(C(=O)C#CC(C)(C)N(C)C)CC3)C(=O)N3CCCC(N3)C(=O)OCC(C)(C)C2)C1
7. C=CC(=O)N1CCN(c2nc(OCC3CCCN3C)nc3c(F)c(-c4nc(N)cc(C)c4C(F)(F)F)c(Cl)cc23)C(C)C1 (stereo unspecified) + CCn1c(-c2cccnc2C(C)OC)c2c3cc(ccc31)N1CCOC(CC(NC(=O)C(C(C)C)N(C)C(=O)C3(F)CCN(C(=O)C#CC(C)(C)N(C)C)CC3)C(=O)N3CCCC(N3)C(=O)OCC(C)(C)C2)C1
8. C[C@@H](NC(=O)c1ncnc(N)c1Cl)c1ncc(C(=O)Nc2cc(C(F)(F)F)c(Cl)cn2)s1 + CCn1c(-c2cc(N3CCN(C)CC3)cnc2C(C)OC)c2c3cc(ccc31)-c1csc(n1)CC(NC(=O)C1CC1C)C(=O)N1CCCC(N1)C(=O)OCC(C)(C)C2

## Output
1: 16.4%; 2: 24.1%; 3: 20.4%; 4: 16.5%; 5: 13.3%; 6: 19.2%; 7: 22.8%; 8: 22.4%

Report viability, T/C for every entry below.
1. CC(=O)OC12COC1CC(O)C1(C)C(=O)C(O)C3=C(C)C(OC(=O)C(O)C(NC(=O)OC(C)(C)C)c4ccccc4)CC(O)(C(OC(=O)c4ccccc4)C21)C3(C)C (stereo unspecified) + CCn1c(-c2cccnc2C(C)OC)c2c3cc(ccc31)N1CCOC(CC(NC(=O)C(C(C)C)N(C)C(=O)C3(F)CCN(C(=O)C#CC(C)(C)N(C)C)CC3)C(=O)N3CCCC(N3)C(=O)OCC(C)(C)C2)C1
2. O=C(c1ccc(F)c(F)c1Nc1ccc(I)cc1F)N1CC(O)([C@@H]2CCCCN2)C1 + CCn1c(-c2cccnc2C(C)OC)c2c3cc(ccc31)N1CCOC(CC(NC(=O)C(C(C)C)N(C)C(=O)C3(F)CCN(C(=O)C#CC(C)(C)N(C)C)CC3)C(=O)N3CCCC(N3)C(=O)OCC(C)(C)C2)C1
3. CCC(CC)c1cc(NC2CCC(N)C2)n2nccc2n1 (stereo unspecified) + CCn1c(-c2cc(N3CCN(C)CC3)cnc2C(C)OC)c2c3cc(ccc31)-c1csc(n1)CC(NC(=O)C1CC1C)C(=O)N1CCCC(N1)C(=O)OCC(C)(C)C2
4. CC(C)NCC(C(=O)N1CCN(c2ncnc3c2C(C)CC3O)CC1)c1ccc(Cl)cc1 (stereo unspecified) + CCn1c(-c2cccnc2C(C)OC)c2c3cc(ccc31)N1CCOC(CC(NC(=O)C(C(C)C)N(C)C(=O)C3(F)CCN(C(=O)C#CC(C)(C)N(C)C)CC3)C(=O)N3CCCC(N3)C(=O)OCC(C)(C)C2)C1
5. C=CC(=O)N1CCN(c2nc(OCC3CCCN3C)nc3c(F)c(-c4nc(N)cc(C)c4C(F)(F)F)c(Cl)cc23)C(C)C1 (stereo unspecified) + CCn1c(-c2cc(N3CCN(C)CC3)cnc2C(C)OC)c2c3cc(ccc31)-c1csc(n1)CC(NC(=O)C1CC1C)C(=O)N1CCCC(N1)C(=O)OCC(C)(C)C2

## Output
1: 11.9%; 2: 12.5%; 3: 27.6%; 4: 17.7%; 5: 20.2%
